- test system: ALK4 (ACVR1B) (Homo sapiens)
- Sequence (P36896 24-505): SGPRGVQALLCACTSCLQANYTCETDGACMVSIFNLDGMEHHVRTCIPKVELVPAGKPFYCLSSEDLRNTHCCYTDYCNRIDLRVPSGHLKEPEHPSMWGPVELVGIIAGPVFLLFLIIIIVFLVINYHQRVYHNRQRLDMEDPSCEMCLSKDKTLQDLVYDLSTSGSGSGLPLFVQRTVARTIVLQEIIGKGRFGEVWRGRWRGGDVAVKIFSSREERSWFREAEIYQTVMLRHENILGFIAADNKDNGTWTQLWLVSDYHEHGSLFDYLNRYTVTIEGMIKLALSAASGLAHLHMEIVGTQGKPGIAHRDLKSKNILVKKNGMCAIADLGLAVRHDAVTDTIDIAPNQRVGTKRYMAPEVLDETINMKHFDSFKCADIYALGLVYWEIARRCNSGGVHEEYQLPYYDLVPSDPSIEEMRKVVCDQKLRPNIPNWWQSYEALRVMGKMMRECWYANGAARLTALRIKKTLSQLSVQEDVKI
- assay details: KINOMEscan competitive binding assay (Kd)
- condition details: analyses herein; read-out: Binding constant (Kd) ALK4 (ACVR1B)
measure: pKd
Note: pKd values are expressed as the negative base-10 logarithm of concentration in M.

Lookup: pKd / ALK4 (ACVR1B) (Homo sapiens) / "Cc1cccc(-c2nn3c(c2-c2ccnc4ccc(O)cc24)CCC3)n1"
7.89

---

- assay details: in vitro
- condition details: mouse, pH 7.4
measure: recovery at 4 h, 5 µM (%)
# output: bare number, implied unit %

Form field: reported recovery at 4 h, 5 µM of CC(=O)CC(c1ccccc1)c1c(O)c2ccccc2oc1=O (stereo not shown) [Warfarin, reference compound]
99.9

---

- test system: ALK3 (BMPR1A) (Homo sapiens)
- Construct: purchased Eurofins/DiscoveryX (KINOMEscan service)
- Sequence (P36894 24-532): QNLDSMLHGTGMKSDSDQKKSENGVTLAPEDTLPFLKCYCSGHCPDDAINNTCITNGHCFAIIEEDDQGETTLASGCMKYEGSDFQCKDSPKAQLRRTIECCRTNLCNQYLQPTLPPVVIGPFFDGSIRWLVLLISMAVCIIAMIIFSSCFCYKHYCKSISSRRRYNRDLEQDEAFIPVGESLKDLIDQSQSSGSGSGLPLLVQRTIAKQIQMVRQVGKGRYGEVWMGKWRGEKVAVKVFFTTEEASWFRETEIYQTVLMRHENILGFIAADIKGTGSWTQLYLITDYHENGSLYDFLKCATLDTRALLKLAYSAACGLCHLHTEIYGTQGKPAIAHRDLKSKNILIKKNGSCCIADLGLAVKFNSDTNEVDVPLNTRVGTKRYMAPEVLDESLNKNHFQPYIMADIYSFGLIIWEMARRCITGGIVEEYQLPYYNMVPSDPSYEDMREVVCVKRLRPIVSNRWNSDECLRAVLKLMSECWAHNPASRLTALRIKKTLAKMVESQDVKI
- assay details: KINOMEscan competitive binding assay (Kd)
- condition details: analyses herein; read-out: Binding constant (Kd) ALK3 (BMPR1A)
measure: pKd
# pKd is unitless: minus log10 of the molar concentration; print number only

Param readout = pKd; param system = ALK3 (BMPR1A) (Homo sapiens); param query = "Cc1cccc(-c2nn3c(c2-c2ccnc4ccc(O)cc24)CCC3)n1" ; response: value
5.16

---

- assay details: Plasma protein binding by rapid equilibrium dialysis, mouse plasma
- condition details: mouse, plasma (rapid equilibrium dialysis device), pH 7.4
measure: recovery at 4 h, 5 µM (%)
Respond with the bare value in %.

Would you kindly share the measured recovery at 4 h, 5 µM for "Cc1cccc(-c2nn3c(c2-c2ccnc4ccc(O)cc24)CCC3)n1" ?
112

---

This section presents compounds with their documented pIC50 values.
- test system: p38α (Homo sapiens, UniProt Q16539)
- Construct: p38alpha was used as a full -length recombinant protein
- Sequence (Q16539 whole entry): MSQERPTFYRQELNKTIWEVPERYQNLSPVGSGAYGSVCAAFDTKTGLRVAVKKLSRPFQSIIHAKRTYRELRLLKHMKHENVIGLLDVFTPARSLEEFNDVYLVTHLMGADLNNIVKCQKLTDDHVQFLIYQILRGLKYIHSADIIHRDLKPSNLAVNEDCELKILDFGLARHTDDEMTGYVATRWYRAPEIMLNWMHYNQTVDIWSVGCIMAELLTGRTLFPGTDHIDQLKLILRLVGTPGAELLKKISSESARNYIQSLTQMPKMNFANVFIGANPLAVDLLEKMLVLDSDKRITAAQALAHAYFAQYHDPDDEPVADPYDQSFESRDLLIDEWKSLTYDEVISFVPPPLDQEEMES
- assay details: Radiometric in vitro kinase activity assay (Kinase Profiler)
- condition details: full-length recombinant protein; read-out: kinase inhibition IC50, p38α
Worth noting: pIC50 values are minus log10 of concentrations stated in mol/L.

{"columns": ["structure notation", "test system", "pIC50"],
 "data": [
  ["Cc1cccc(-c2nn3c(c2-c2ccnc4ccc(O)cc24)CCC3)n1", "p38α (Homo sapiens, UniProt Q16539)", 6.26]
]}

Next compound, pIC50 to be filled in.
Need pIC50 of "Cc1cccc(-c2nn3c(c2-c2ccnc4ccc(C(N)=O)cc24)CCC3)n1" , thanks.
6.04

---

- assay details: Plasma protein binding by rapid equilibrium dialysis, rat plasma
- condition details: rat, plasma (rapid equilibrium dialysis device), pH 7.4
measure: recovery at 4 h, 5 µM (%)
Report the figure in % without appending any unit label.

Entry Cc1cccc(-c2nn3c(c2-c2ccnc4ccc(O)cc24)CCC3)n1 [HYL001] : reported recovery at 4 h, 5 µM = ?
100

---

- test system: ALK2 (ACVR1) (Homo sapiens, UniProt Q04771)
- Construct: purchased Eurofins/DiscoveryX (KINOMEscan service)
- Sequence (Q04771 21-509): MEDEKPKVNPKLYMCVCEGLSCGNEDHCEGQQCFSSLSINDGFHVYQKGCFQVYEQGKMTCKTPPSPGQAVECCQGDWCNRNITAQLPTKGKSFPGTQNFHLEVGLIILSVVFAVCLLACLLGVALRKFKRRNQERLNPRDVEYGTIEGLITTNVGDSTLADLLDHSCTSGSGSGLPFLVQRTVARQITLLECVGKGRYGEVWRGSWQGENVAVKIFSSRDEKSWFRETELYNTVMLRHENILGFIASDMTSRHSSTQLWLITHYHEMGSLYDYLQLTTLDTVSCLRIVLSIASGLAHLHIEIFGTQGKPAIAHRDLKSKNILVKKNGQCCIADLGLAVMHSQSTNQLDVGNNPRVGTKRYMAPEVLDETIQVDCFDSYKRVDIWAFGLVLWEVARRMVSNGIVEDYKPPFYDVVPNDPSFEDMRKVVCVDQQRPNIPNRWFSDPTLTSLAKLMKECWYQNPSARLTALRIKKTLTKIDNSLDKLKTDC
- assay details: KINOMEscan competitive binding assay (Kd)
- condition details: analyses herein; read-out: Binding constant (Kd) ALK2 (ACVR1)
measure: Kd (µM)
Form entry: value (µM) — number only.

# query: Kd of entry Cc1cccc(-c2nn3c(c2-c2ccnc4ccc(O)cc24)CCC3)n1 [HYL001]
7.5

---

- assay details: in vitro
- condition details: human, pH 7.4
measure: recovery at 4 h, 5 µM (%)
Just the number in %, nothing appended.

Which recovery at 4 h, 5 µM reading was recorded for the compound CC(=O)CC(c1ccccc1)c1c(O)c2ccccc2oc1=O (stereo not shown) [Warfarin, reference compound] ?
100
